Test system: NCI-H522
Test: NCI tumour cell line growth inhibition, 48 h
Active and inactive are the calls of the source. No stated cut-off is given here; in the data, active = GI50 up to about 1.1 µM and inactive = higher.
Observed property: GI50

• CN1C(=O)CCC1(O)C1C=CC=CC1 (stereo unspecified) = > 100 µM (inactive)
• O=S(=O)(O)c1ccc([Se][Se]c2ccc(S(=O)(=O)O)cc2)cc1 = 60.5 µM (inactive)
• CN(C(=O)C1=CCC2(CC1)OCCO2)c1ccccc1I = > 100 µM (inactive)
• COc1ccc2c(c1)C1Oc3ccccc3CC1(O)CO2 (stereo unspecified) = > 100 µM (inactive)
• COc1cc2c3c(c1OC)C1(C=CC(=O)C=C1)C[C@H]3N(C)CC2 [PRONUCIFERINE] = 74.3 µM (inactive)
• Oc1ccc(-c2nc(-c3cccnc3)c(-c3ccc(Cl)cc3)[nH]2)cc1 = 10.3 µM (inactive)

---

Measured GI50, listed per entry.
Test system: CAKI-1
Assay: NCI tumour cell line growth inhibition, 48 h
Calls of active or inactive are those of the source. No stated cut-off is given here; in the data, active = GI50 up to about 1.1 µM and inactive = higher.
Observed property: GI50

* CC(=O)OCC1OC(NC(=S)N/N=C2\CC(c3ccccc3)Oc3ccccc32)C(OC(C)=O)C(OC(C)=O)C1OC(C)=O (stereo not given) | > 100 µM (inactive)
* CC(=O)O/C(C)=C\C(=O)O/N=C(\N)c1ccc(C)cc1 | > 100 µM (inactive)
* CCOc1cc(/C=N/c2ccc(Oc3ccc(Cl)cc3)c(Cl)c2)ccc1O | 19.8 µM (inactive)
* CC(C)[Si](OCC/C=C/C1CCC(=O)C1C(O)C1CCCCC1)(C(C)C)C(C)C (stereo not given) | 14.7 µM (inactive)
* CCOC(=O)CCC(NC(=O)c1ccc(Nc2nc3ccccc3nc2C(=O)OCC)cc1)C(=O)OCC (stereo not given) | 5.96 µM (inactive)
* COc1ccc(/N=N/c2c(C)c(C#N)c(=S)n(C3OC(COC(C)=O)C(OC(C)=O)C(OC(C)=O)C3OC(C)=O)c2-c2ccccc2)cc1 (stereo not given) | 9.48 µM (inactive)
* O=c1oc2ccccc2c(O)c1C(C/C(CCN1CCCC1)=N/O)c1ccccc1 (stereo not given) | > 100 µM (inactive)
* O=C(c1ccc(Cl)cc1)N(C(=S)N1CCN(c2ccccc2)CC1)c1ccccc1 | > 100 µM (inactive)
* Fc1ccc(F)c(C2SCc3nc4ccccc4n32)c1 (stereo not given) | 95.5 µM (inactive)
* CN(C)c1ccc(/C=N/c2nc3cc4sc(/N=C/c5ccc(N(C)C)cc5)nc4cc3s2)cc1 | 21.3 µM (inactive)

---

Listed below: GI50 values for each entry.
Tested on: EKVX
Experiment: NCI tumour cell line growth inhibition, 48 h
Activity calls are given as the source filed them. Rule as the data show it: active = GI50 up to about 1.1 µM and inactive = higher.
Observed property: GI50

* COc1ccc(CSc2ccccc2Cn2cccc2)cc1OC | 82.8 µM (inactive)
* COc1ccc2cc(C(=O)Nc3ccc(O)c(C(=O)O)c3)ccc2c1OC | > 100 µM (inactive)
* CCC/C=C/C=C/C(=O)OC1C(C)C2(O)C3C=C(C)C(=O)C3CC(COC(C)=O)=CC2C2C(C)(C)C12OC(=O)C(C)C (stereo not given) | 19.4 µM (inactive)
* CC(C)[C@@H]1NC(=O)[C@@H]2N=C(O[C@H]2C)[C@H](C(C)C)NC(=O)C2N=C1O[C@H]2C | > 100 µM (inactive)
* COc1cc(C2CC(C)(Nc3ccccc3)Oc3cc4c(cc32)OCO4)cc(OC)c1OC (stereo not given) | 1.82 µM (inactive)
* C=C1CC/C=C(\C)CCC[C@H](C)[C@@H](O)[C@@H]2OC(=O)C(=C)[C@@H]2C[C@H]1O | 5.73 µM (inactive)
* CC(C)NC(=O)OCCN=C1c2ccccc2C(Br)C(Br)c2ccccc21 (stereo not given) | 9.06 µM (inactive)
* O=c1oc2c(Cl)cc(Cl)cc2cc1C1=CSC2=NCCN12 | 41.9 µM (inactive)
* CCOC(=O)N1CC2(C)C=CC1C(C(=O)OC)C2 (stereo not given) | > 100 µM (inactive)
* O=C1c2ccccc2C2(Br)C(=O)c3ccccc3C12 (stereo not given) | > 100 µM (inactive)

---

Test system: NCI-H226
Assay: NCI tumour cell line growth inhibition, 48 h
Active and inactive are the calls of the source. Cut-off read from the data, not from the text of the source: active = GI50 up to about 1.1 µM and inactive = higher.
Outcomes: active, inactive

* COc1ccc(CCNC2=CC(=O)c3ncccc3C2=O)cc1OC | inactive
* CCCc1cc(COC)c(C#N)c(O)n1 | inactive
* Cc1ccc(S(=O)(=O)N2CCSCCSCCSCCN(S(=O)(=O)c3ccc(C)cc3)CC2)cc1 | inactive
* Fc1ccc(F)c(C2SCc3nc4ccccc4n32)c1 (stereo unspecified) | inactive
* C[N+]1(C)CCc2cc(O)c(O)cc2C1Cc1ccc(O)c(O)c1 (stereo unspecified) | inactive
* O=C(CCN1CCN(c2cccc(Cl)c2)CC1)N1CCc2c([nH]c3ccccc23)C1c1cccnc1 (stereo unspecified) | inactive
* CN(C)c1c(Cl)c(=O)oc2c1ccc1nc(-c3ccccc3)sc12 | inactive
* CN(C)CCNC(=O)c1cccc2nc3ccc4ccccc4c3nc12 | active
* CN1C(=O)c2ccc3ccccc3c2C1=O | inactive
* COc1ccc(OC)c2c(=S)c3ccccc3[nH]c12 | inactive
* N#CC(c1nc2ccccc2s1)c1ncnc(Cl)c1[N+](=O)[O-] (stereo unspecified) | inactive

---

Test system: ACHN
Test: NCI tumour cell line growth inhibition, 48 h
Calls of active or inactive are those of the source. Rule as the data show it: active = GI50 up to about 1.1 µM and inactive = higher.
Possible outcomes: T = active, F = inactive

• CCOC(=O)c1c(Br)c(-c2ccc(OC)cc2)c(Br)n1C = F
• COC(=O)C1(C(C)C)CCc2c(OC)ccc(OC)c2C1=O (configuration not stated) = F
• NC(=S)Nc1nnc(-c2ccc(-c3nnc(NC(N)=S)o3)cc2)o1 = F
• Cc1c(C)c(S(=O)(=O)N(CCCN)OCCCN)c(C)c2c1OC(C)(C)CC2 = F
• CCC(C=O)P1(=O)OC(C)(C)CN1C(C)(C)C (configuration not stated) = F
• COc1cc2c3c(c1OC)C1(C=CC(=O)C=C1)C[C@H]3N(C)CC2 = F
• Cc1cc(C)c2c(c1)CSCc1cc(C)cc(C)c1-2 = F
• CCC1([N+](=O)[O-])CC2C=CC1C2 (configuration not stated) = F
• N#CC1C(=O)N(c2ccccc2)NC12OC(=O)c1ccncc12 (configuration not stated) = F
• NC1=CN(Cc2ccccc2)C2=N/C(=C\c3ccccc3)C(=O)N12 = F
• O=C(CCc1cc(O)cc(O)c1)NCCc1cc(OCc2ccccc2)cc(OCc2ccccc2)c1 = F
• N=C(N)c1ccc(C(NC(=O)CNS(=O)(=O)c2ccc3ccccc3c2)P(=O)(Oc2ccccc2)Oc2ccccc2)cc1 (configuration not stated) = F
• Nc1ccccc1C(=O)CCC1C(=O)NC(=S)NC1=O = F
• CC(=O)N/C(=C\c1ccc(/C=C(\NC(C)=O)c2nc3cc(Cl)ccc3[nH]2)cc1)c1nc2ccccc2[nH]1 = F
• Cc1nn(C(=O)CC(=O)Nc2ccccc2Cl)c(C)c1/N=N/c1ccccc1Cl = F
• O=c1oc2ccccc2c(O)c1C(C/C(CCN1CCCC1)=N/O)c1ccccc1 (configuration not stated) = F
• Fc1ccc(/N=C2C=C/C(=N\c3ccc(F)cc3)c3ccccc3\2)cc1 = F
• C/C(CCn1[nH]c(=O)ccc1=O)=N\OCCCc1ccccc1 = F
• CCCS(=O)(=O)/C(=C(\c1ccc(Br)cc1)S(=O)(=O)CCC)c1ccc(Br)cc1 = F
• COc1ccc(CC2NC(=O)/C=C/CC(C(C)C3OC3c3ccccc3)OC(=O)C(CC(C)C)OC(=O)C(C)CNC2=O)cc1Cl (configuration not stated) = T
• c1ccc2c(c1)oc1ccc3nsnc3c12 = F
• CC(=O)C1=C(O)C(N)C2Cc3c(c(O)c4c(O)c(C)ccc4c3C)C(=O)C2(O)C1=O (configuration not stated) = F
• Nc1ncnn2c(C3OC(CO)C(O)C3O)ccc12 (configuration not stated) = T
• C=C(C)[C@@H]1CC[C@]2(C(=O)O)CC[C@]3(C)[C@H](CC[C@@H]4[C@@]5(C)CC(=O)C(C)(C)[C@@H]5CC[C@]43C)[C@@H]12 = F
• CCN(CC)CCO/N=C1/C=C2CCC3C(CC[C@@]4(C)C3CC[C@]4(C)O)[C@@]2(C)CC1 (some centres not stated) = F
• O=C([O-])C(O)C(O)C(O)C(O)C(=O)O.[K+] (configuration not stated) = F
• NNc1cnn(-c2ccccc2)c(=O)c1Cl = F
• Cc1cc2c(cc1C)[n+]([O-])c(C(=O)/C=C/c1ccccc1Cl)c(C)[n+]2[O-] = F
• O=C1OC2CCCC[C@@H]2C2C[C@]34CCCCC3[C@@H](C(=O)O4)C12 (some centres not stated) = F
• O=C(Nc1sccc1S(=O)(=O)c1ccc(Cl)cc1)c1ccccc1 = F
• Cn1c(=O)oc2cc(C(=S)N3CCC(Cc4ccccc4)CC3)ccc21 = F
• CCOP(=O)(OCC)/C(=C/n1c(=S)[nH]c2ccccc21)C(=O)OC = F
• Cc1cccc(NC(=S)Nc2ccc(Cl)cc2)n1 = F
• Sc1nnc(COc2ccc(Cl)cc2Cl)[nH]1 = F
• CC(=O)O/C(C)=C\C(=O)O/N=C(\N)c1ccc(C)cc1 = F
• O=C1Nc2cc([N+](=O)[O-])ccc2C(=O)N2CCC[C@@H]12 = F
• CC/C(N)=N\NC(=O)OC(C)(C)C = F
• COc1ccc(C2c3cc4c(cc3OC3(OC)COC(=O)C23)OCO4)c(OC)c1 (configuration not stated) = F
• CN(C(=O)C1=CCC2(CC1)OCCO2)c1ccccc1I = F
• COc1ccc2nc(-c3ccc(O)cc3)cc(O)c2c1 = F
• N#C/C(=C1\SC(/N=N/c2ccccc2)C(=O)N1c1ccccc1)c1nc2ccccc2[nH]1 (configuration not stated) = F
• CC1CC/C(=C\c2ccc(F)cc2)C(=O)/C1=C/c1ccc(F)cc1 (configuration not stated) = F
